Target: UniProt:P21462
Sequence (P21462 whole entry, looked up): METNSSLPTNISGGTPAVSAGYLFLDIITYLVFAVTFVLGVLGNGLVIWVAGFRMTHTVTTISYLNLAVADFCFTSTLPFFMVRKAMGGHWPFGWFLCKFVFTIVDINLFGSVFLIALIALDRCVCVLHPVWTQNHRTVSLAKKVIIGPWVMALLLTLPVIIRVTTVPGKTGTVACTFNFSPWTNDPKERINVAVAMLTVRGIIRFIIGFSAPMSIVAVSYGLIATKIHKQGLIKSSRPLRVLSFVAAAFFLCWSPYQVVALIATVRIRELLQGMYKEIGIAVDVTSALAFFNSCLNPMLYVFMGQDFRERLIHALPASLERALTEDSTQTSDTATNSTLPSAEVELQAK
Test: FPR1 fluorescent ligand binding inhibitors, dose response, cell-based, flow cytometry, Ki from IC50 (AID 724)
Settings: FPR1-expressing cells, fluorescent ligand binding competition
Active and inactive are the calls of the source. How the calls were made is not given here.
The categories you may choose from are YES for active, NO for inactive

Recorded results for 5 compounds are shown here.
O=C(C1=C(O)C(=O)N(CCCn2ccnc2)C1c1cccnc1)c1cc2ccccc2o1 (centres undefined); NO
COc1ccc(C2C(C(=O)c3cccs3)=C(O)C(=O)N2CCCn2ccnc2)cc1 (centres undefined); YES
Cc1ccc(/C(O)=C2\C(=O)C(=O)N(c3nnc(C)s3)C2c2ccc(C(C)C)cc2)cc1 (centres undefined); NO
COc1ccc(OC)c(C2/C(=C(\O)c3ccccc3)C(=O)C(=O)N2c2ccc(C)c(Cl)c2)c1 (centres undefined); NO
CCCCCCN1C(=O)C(=O)/C(=C(\O)c2ccccc2)C1c1ccc(O)c(OC)c1 (centres undefined); YES

-- ask # fetch the recorded call for COc1ccc(C2/C(=C(\O)c3ccc(C)cc3)C(=O)C(=O)N2Cc2cccnc2)c(OC)c1 (centres undefined) here
-- reply NO

-- ask Record request — test call for COc1ccc(C2/C(=C(\O)c3ccccc3)C(=O)C(=O)N2CCCn2ccnc2)c(OC)c1 (centres undefined)
-- reply YES

-- ask Recorded test call requested for COc1ccc(C2C(C(=O)c3ccco3)=C(O)C(=O)N2CCCN2CCOCC2)cc1OC (centres undefined)
-- reply NO

-- ask Dear colleague, could you share the recorded outcome for Cc1ccc(N2C(=O)C(=O)/C(=C(\O)c3ccccc3)C2c2cccc(F)c2)cc1Br (centres undefined) when you have a moment?
-- reply NO

###

This document collects pIC50 values reported for fMet-Leu-Phe receptor (Homo sapiens).
pIC50: −log10 of the molar value.
endpoint-name: pIC50

COc1ccc(C2C(C(=O)c3cccs3)=C(O)C(=O)N2CCN2CCOCC2)c(OC)c1 (stereo not given); 5.36
COCCN1C(=O)C(=O)/C(=C(/O)c2ccccc2)C1c1cc(OC)ccc1OC (stereo not given); 5.55
COc1ccc(C2/C(=C(\O)c3ccc(C)cc3)C(=O)C(=O)N2Cc2cccnc2)c(OC)c1 (stereo not given); 4.22

P. COc1ccc(C2/C(=C(\O)c3ccccc3)C(=O)C(=O)N2CCCn2ccnc2)c(OC)c1 (stereo not given)
Q. COc1ccccc1-c1c(C(F)(F)F)oc2cc(OC(=O)c3ccco3)ccc2c1=O
-- ask // select label with min value of measured pIC50 from [ P , Q ] Your answer should be the label of the entry you select.
-- reply P
(P: 5.28, Q: 5.77)

###

Molecular target: UniProt:P21462
pIC50: −log10 of the molar value.
endpoint-name: pIC50

Past entries and their recorded results:
CC(C)c1ccc(C2/C(=C(\O)c3ccccc3)C(=O)C(=O)N2Cc2cccnc2)cc1 (configuration not stated); 4.29
COc1ccc(-c2c(C(F)(F)F)oc3cc(OC(=O)c4ccco4)ccc3c2=O)cc1OC; 5.30
CCCCCCN1C(=O)C(=O)/C(=C(\O)c2ccccc2)C1c1ccc(O)c(OC)c1 (configuration not stated); 5.14

a. CC(=O)C1=C(O)C(=O)N(CCc2c(C)[nH]c3ccccc23)C1c1cccc(F)c1 (configuration not stated)
b. COc1ccc(C2/C(=C(\O)c3ccccc3)C(=O)C(=O)N2c2cccc(Cl)c2)c(OC)c1 (configuration not stated)
c. COc1ccc(OC)c(C2/C(=C(\O)c3ccccc3)C(=O)C(=O)N2c2cccnc2)c1 (configuration not stated)
d. Cc1nc2c(-c3ccc(Cl)cc3)c(C(F)(F)F)[nH]n2c(=O)c1Cc1ccccc1
-- ask Reorder the items by pIC50, least to greatest. // ordering of labels required in reply
-- reply b, a, c, d

###

pIC50: −log10 of the molar value.
This document collects pIC50 values reported for fMet-Leu-Phe receptor (Homo sapiens).
endpoint-name: pIC50

The examples below pair each entry with its known result.
O=C(Oc1ccc2c(=O)c(-c3ccccc3Cl)c(C(F)(F)F)oc2c1)c1cccs1; 5.77
COc1ccc(-c2c(C(F)(F)F)oc3cc(OC(=O)c4cccnc4)ccc3c2=O)cc1OC; 4.87
COc1ccc(C2C(C(=O)c3cccs3)=C(O)C(=O)N2CCCn2ccnc2)cc1 (centres undefined); 5.15

A. COc1ccc(OC)c(C2/C(=C(\O)c3ccccc3)C(=O)C(=O)N2c2ccc(C)c(Cl)c2)c1 (centres undefined)
B. O=C(C1=C(O)C(=O)N(CCc2ccccc2)C1c1ccc(Cl)cc1)c1cccs1 (centres undefined)
C. COCCCN1C(=O)C(=O)/C(=C(/O)c2ccccc2)C1c1ccc(O)c(OC)c1 (centres undefined)
D. CCc1cc2c(=O)c(-c3nc4ccccc4n3C)c(C)oc2cc1OC(C)=O
-- ask Ordering: ascending pIC50. Output spec: labels arranged per the requested ranking.
-- reply C, A, B, D
(C: 4.30, A: 4.59, B: 4.97, D: 6.30)

A. COc1ccc(C2C(C(=O)c3ccco3)=C(O)C(=O)N2CCN2CCOCC2)c(OC)c1 (centres undefined)
B. COCCCN1C(=O)C(=O)/C(=C(/O)c2ccccc2)C1c1ccc(C(C)C)cc1 (centres undefined)
-- ask I'm curious whether A or B has the smaller pIC50 number. Which is it? Reply briefly: the label of your chosen item.
-- reply B
(B: 4.51, A: 5.01)

###

Target: fMet-Leu-Phe receptor (Homo sapiens)
Test: FPR1 fluorescent ligand binding inhibitors, dose response, cell-based, flow cytometry, Ki from IC50 (AID 724)
Conditions: FPR1-expressing cells, fluorescent ligand binding competition
Activity calls are given as the source filed them. How the calls were made is not given here.
Assign a class; possible classes are True (active), False (inactive)

Some solved entries appear below for comparison.
O=C(C1=C(O)C(=O)N(CCCN2CCOCC2)C1c1cccnc1)c1cc2ccccc2o1 (stereo not given); False
CC(=O)C1=C(O)C(=O)N(CCc2c(C)[nH]c3ccccc23)C1c1cccc(F)c1 (stereo not given); False
COc1ccc(OC)c(C2/C(=C(\O)c3ccc(C)cc3)C(=O)C(=O)N2CCC(=O)O)c1 (stereo not given); False
COc1cc(C2C(C(C)=O)=C(O)C(=O)N2c2ccc(Br)cc2)ccc1O (stereo not given); False
O=C1NC(c2ccc(Br)cc2)/C(=C(\O)c2ccc(Cl)cc2)C1=O (stereo not given); False
COCCCN1C(=O)C(=O)/C(=C(/O)c2ccccc2)C1c1ccc(O)c(OC)c1 (stereo not given); False

-- ask Assay result, entry Cc1ccc(/C(O)=C2\C(=O)C(=O)N(Cc3cccnc3)C2c2ccc(Br)cc2)cc1 (stereo not given) — outcome?
-- reply False

-- ask Test call for this compound, please: O=C(O)CCCN1C(=O)C(=O)/C(=C(/O)c2ccccc2)C1/C=C/c1ccccc1 (stereo not given)
-- reply False

-- ask Dear all, I need the recorded test outcome for COc1ccc(C2/C(=C(\O)c3ccccc3)C(=O)C(=O)N2c2cccc(Cl)c2)c(OC)c1 (stereo not given) , thank you.
-- reply False

-- ask # outcome recorded in this test, key = COCCN1C(=O)C(=O)/C(=C(/O)c2ccccc2)C1c1cc(OC)ccc1OC (stereo not given)
-- reply True

-- ask Which outcome did this test record for the compound COc1ccc(C2C(C(=O)c3ccco3)=C(O)C(=O)N2CCN2CCOCC2)c(OC)c1 (stereo not given) ?
-- reply True

-- ask # fetch the recorded call for COc1ccc(OC)c(C2/C(=C(\O)c3ccccc3)C(=O)C(=O)N2c2cccnc2)c1 (stereo not given) here
-- reply True

-- ask Given COc1ccc(/C(O)=C2/C(=O)C(=O)N(CCc3c[nH]c4ccccc34)C2c2ccc(C(C)C)cc2)cc1 (stereo not given) , state the outcome it received in this test.
-- reply False

-- ask Answer briefly: the call reported for CC(C)c1ccc(C2/C(=C(\O)c3ccccc3)C(=O)C(=O)N2Cc2cccnc2)cc1 (stereo not given) in this assay.
-- reply False

-- ask Check the results log: what was the call for O=C(C1=C(O)C(=O)N(CCCn2ccnc2)C1c1cccnc1)c1ccco1 (stereo not given) ?
-- reply False

-- ask Hey, what did the test say about COc1cc(C2C(C(=O)c3cc4ccccc4o3)=C(O)C(=O)N2CCN(C)C)ccc1O (stereo not given) ?
-- reply False

-- ask Per the assay record, what outcome was assigned to COc1ccc(/C(O)=C2/C(=O)C(=O)NC2c2ccc(OC)cc2OC)cc1 (stereo not given) ?
-- reply False

-- ask What outcome does the record of this test show for COc1ccc(C2C(C(=O)c3cccs3)=C(O)C(=O)N2CCN2CCOCC2)c(OC)c1 (stereo not given) ?
-- reply True

-- ask Call for entry O=C(C1=C(O)C(=O)N(CCc2ccccc2)C1c1ccc(Cl)cc1)c1cccs1 (stereo not given) :
-- reply True

-- ask Dear all, I need the recorded test outcome for `N#Cc1c(N/C(=C\C(=O)c2ccccc2)C(=O)O)sc2c1CCC2` , thank you.
-- reply False
